Values compiled from ChEMBL document CHEMBL4627293.

- System: Klebsiella pneumoniae
- experimental.protocol: Antimicrobial activity against Klebsiella pneumoniae 7
- Type: functional
// boundary case: MIC equal to 20 mg/L maps to f; strictly smaller maps to t

smiles.structure | cat
CN(C)C(=N)c1ccc2cc(-c3ccc(Oc4ccc(-c5cc6ccc(C(=N)N(C)C)cc6[nH]5)nc4)cc3)[nH]c2c1 | t
CNC(=N)c1ccc2cc(-c3ccc(Oc4ccc(-c5cc6ccc(C(=N)NC)cc6[nH]5)cn4)cc3)[nH]c2c1 | f
CNC(=N)c1ccc2cc(-c3ccc(Oc4ccc(-c5cc6ccc(C(=N)NC)cc6[nH]5)nc4)cc3)[nH]c2c1 | f
CNC(=N)c1ccc2cc(-c3ccc(Oc4ccc(-c5cc6ccc(C(=N)NC)cc6[nH]5)c(Cl)c4)cc3)[nH]c2c1 | f
CN(C)C(=N)c1ccc2cc(-c3ccc(Oc4ccc(-c5cc6ccc(C(=N)N(C)C)cc6[nH]5)c(C(F)(F)F)c4)cc3)[nH]c2c1 | f
CNC(=N)c1ccc2cc(-c3ccc(Oc4ccc(-c5cc6ccc(C(=N)NC)cc6[nH]5)c(OC)c4)cc3)[nH]c2c1 | f

Determine if "CN(C)C(=N)c1ccc2cc(-c3ccc(Oc4ccc(-c5cc6ccc(C(=N)N(C)C)cc6[nH]5)cn4)cc3)[nH]c2c1" shows MIC strictly lower than 20 mg/L.
t

API: query returns whether the molecule falls strictly under 20 mg/L in MIC. Query: "CNC(=N)c1ccc2cc(-c3ccc(Oc4ccc(-c5cc6ccc(C(=N)NC)cc6[nH]5)c(C(F)(F)F)c4)cc3)[nH]c2c1"
t

Lab note: confirm whether the reported MIC for this molecule is below 20 mg/L, equality not counting. molecule: "CN(C)C(=N)c1ccc2cc(-c3ccc(Oc4ccc(-c5cc6ccc(C(=N)N(C)C)cc6[nH]5)c(Cl)c4)cc3)[nH]c2c1"
f

Item "CC(C)NC(=N)c1ccc2cc(-c3ccc(Oc4ccc(-c5cc6ccc(C(=N)NC(C)C)cc6[nH]5)cn4)cc3)[nH]c2c1" : MIC beneath 20 mg/L, strictly?
t

Given "CN(C)C(=N)c1ccc2cc(-c3ccc(Oc4ccc(-c5cc6ccc(C(=N)N(C)C)cc6[nH]5)c(C(F)(F)F)c4)cn3)[nH]c2c1" , is recorded MIC strictly lower than 20 mg/L?
f

Item "CC(C)NC(=N)c1ccc2cc(-c3ccc(Oc4ccc(-c5cc6ccc(C(=N)NC(C)C)cc6[nH]5)nc4)cc3)[nH]c2c1" : MIC beneath 20 mg/L, strictly?
t

MIC strictly < 20 mg/L for this molecule? "CNC(=N)c1ccc2cc(-c3ccc(Oc4ccc(-c5cc6ccc(C(=N)NC)cc6[nH]5)c(C(F)(F)F)c4)cn3)[nH]c2c1"
t

Say whether its MIC is strictly beneath 20 mg/L. Entry: "COc1cc(Oc2ccc(-c3cc4ccc(C(=N)NC(C)C)cc4[nH]3)cc2)ccc1-c1cc2ccc(C(=N)NC(C)C)cc2[nH]1"
f

Could you please tell me whether MIC recorded for "C[C@H]1COc2c(N3CCN(C)CC3)c(F)cc3c(=O)c(C(=O)O)cn1c23.C[C@H]1COc2c(N3CCN(C)CC3)c(F)cc3c(=O)c(C(=O)O)cn1c23.O" is less than 20 mg/L?
t

In the record for "COc1cc(Oc2ccc(-c3cc4ccc(C(=N)N(C)C)cc4[nH]3)cc2)ccc1-c1cc2ccc(C(=N)N(C)C)cc2[nH]1" , is MIC less than 20 mg/L?
t
